Test system: HEK-CMV-Luc2-Hygro cells
RUN_DESCRIPTION: High-throughput genome-wide siRNA screen and validation screen for luciferase expression
Type: cell-based, human
CONDITION_INFO: Table 4; primary screen, 72 h, negative control = 100%
Here, each record is paired with measured Viable cell density (%) data.
Express it in %; write the number only.

> print(dat)
                                  substance            quantity.kind  numeric.result
1  168 (GCUUCCUCUUGGACCUCAATT; chemistry not given here; listed as Homo sapiens) [compound 168]  Viable cell density (%)          78.156

GET /values?readout=Viable cell density (%)&item= 210 (CAAUGGAACAAUCAAAGUUTT; chemistry not given here; listed as Homo sapiens) [compound 210]
89.607

Recorded Viable cell density (%) of 106 (GCUCAUCGACAUCAAAGUUTT; chemistry not given here; listed as Homo sapiens) [compound 106] , please.
97.007

Would you mind telling me what Viable cell density (%) value was observed for 119 (CUGCCGCAACAAUAAGAAATT; chemistry not given here; listed as Homo sapiens) [compound 119] ?
82.950

// returns reported Viable cell density (%) for input 123 (GGUGUAAUAAUGUCCUUUATT; chemistry not given here; listed as Homo sapiens) [compound 123]
79.386

For the substance shown here, 179 (GUACCUGCGGGAUUACUCATT; chemistry not given here; listed as Homo sapiens) [compound 179] , give the reported Viable cell density (%).
90.987

----------
Test system: T-REx-293-NTSR1-GFP cells
RUN_DESCRIPTION: High-throughput human miRNA mimic library screen, image-based per cell green fluorescence (NTSR1-GFP expression)
CONDITION_INFO: per cell green fluorescence intensity; 72 h after transfection plus 24 h tetracycline induction
Short version: MAD-based z-score at least 3 is true, less is false.

BIOPOLYMER_SEQUENCE	ASSIGNED_LABEL
AGUUCUUCAGUGGCAAGCUUUA (listed as RNA, chemistry not given here; listed as Homo sapiens) [miR-22-5p, human miRNA mimic]	true
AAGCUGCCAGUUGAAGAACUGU (listed as RNA, chemistry not given here; listed as Homo sapiens) [miR-22-3p, human miRNA mimic]	false
UGGUUGUAGUCCGUGCGAGAAUA (listed as RNA, chemistry not given here; listed as Homo sapiens) [miR-1974, human miRNA mimic]	true
GUGUGUGGAAAUGCUUCUGC (listed as RNA, chemistry not given here; listed as Homo sapiens) [miR-147a, human miRNA mimic]	false
ACCUGGCAUACAAUGUAGAUUU (listed as RNA, chemistry not given here; listed as Homo sapiens) [miR-221-5p, human miRNA mimic]	true
UGAGUGCCGGUGCCUGCCCUG (listed as RNA, chemistry not given here; listed as Homo sapiens) [miR-1909-5p, human miRNA mimic]	false
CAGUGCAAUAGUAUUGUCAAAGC (listed as RNA, chemistry not given here; listed as Homo sapiens) [miR-301a-3p, human miRNA mimic]	false
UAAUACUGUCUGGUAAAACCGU (listed as RNA, chemistry not given here; listed as Homo sapiens) [miR-429, human miRNA mimic]	true

In plain terms: is recorded MAD-based z-score at least 3 for ACUCUUUCCCUGUUGCACUAC (listed as RNA, chemistry not given here; listed as Homo sapiens) [miR-130b-5p, human miRNA mimic] ?
false

Does the reported MAD-based z-score for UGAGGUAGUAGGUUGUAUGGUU (listed as RNA, chemistry not given here; listed as Homo sapiens) [let-7c-5p, human miRNA mimic] fall at or above the 3 mark?
false

----------
The entries below are paired with their reported Luciferase activity (%).
System: HEK-CMV-Luc2-Hygro cells
RUN_DESCRIPTION: High-throughput genome-wide siRNA screen and validation screen for luciferase expression
Type: cell-based, human
CONDITION_INFO: Table 6; polyamine pathway gene siRNAs
All answers are understood in %, so give the number only.

Study these solved cases before continuing.
> print(dat)
                                  substance            quantity.kind  readout.units  numeric.result
1  216 (GGGAAUAGUCAGAGGGAUCTT; chemistry not given here; listed as Homo sapiens) [compound 216]  Luciferase activity (%)              %            92.8
2  156 (GAUUAUCCUUGUACUUUGATT; chemistry not given here; listed as Homo sapiens) [compound 156]  Luciferase activity (%)              %           144.5
3  221 (CCACGACCAGCUUAAAGAATT; chemistry not given here; listed as Homo sapiens) [compound 221]  Luciferase activity (%)              %            90.5
4  218 (GGACCUCCCUGUGAAUGAUTT; chemistry not given here; listed as Homo sapiens) [compound 218]  Luciferase activity (%)              %            95.4
5  220 (CCGGGAAAGUUUGACUGCATT; chemistry not given here; listed as Homo sapiens) [compound 220]  Luciferase activity (%)              %           101.5

What value of measured Luciferase activity (%) is listed for 155 (GCCUUGCUCCGAACCUUCATT; chemistry not given here; listed as Homo sapiens) [compound 155] ?
161.1

Item 213 (GGCUGAAUGUAACAGAGGATT; chemistry not given here; listed as Homo sapiens) [compound 213] has what recorded Luciferase activity (%)?
127.6

Would you mind telling me what Luciferase activity (%) value was observed for 228 (GCCCUCUGUUGGAUAUCUATT; chemistry not given here; listed as Homo sapiens) [compound 228] ?
45.6

----------
Test system: HEK-CMV-Luc2-Hygro cells
RUN_DESCRIPTION: High-throughput genome-wide siRNA screen and validation screen for luciferase expression
Type: cell-based, human
CONDITION_INFO: Table 4; primary screen, 72 h, negative control = 100%
Protocol: The Silencer Select™ Human genome siRNA library (Ambion), which targets 21,585 human genes with 3 siRNAs per gene, was used for screening. Each siRNA is arrayed in an individual well (Corning 3570, 384 well, white, solid bottom plates). […] All plates were incubated at room temperature for 20 minutes to stabilize the luminescent signal and the signal was then measured with PerkinElmer Envision 2104 Multilabel™ plate reader. […]
QUANTITY_KIND: Viable cell density (%)
# output: number + unit

Which Viable cell density (%) is listed for 152 (CGAUGUUCGUGGACAUUCUTT; chemistry not given here; listed as Homo sapiens) [compound 152] ?
80.013%

Entry under review: 185 (GAAGAAGACUCUGUACUCATT; chemistry not given here; listed as Homo sapiens) [compound 185] . Reported Viable cell density (%)?
66.511%

Query: Viable cell density (%); subject: 114 (GUCCUAUCACCGUAUCUUATT; chemistry not given here; listed as Homo sapiens) [compound 114]
55.962%

Bench note: what Viable cell density (%) did 181 (GCUAAGUCUUUUCCACAGUTT; chemistry not given here; listed as Homo sapiens) [compound 181] show?
94.537%

Reported Viable cell density (%) for 132 (GGACGGAAGCGAAAAUCGATT; chemistry not given here; listed as Homo sapiens) [compound 132] : what is it?
71.473%

----------
Collected VIA values appear next to each entry.
Test system: HEK-CMV-Luc2-Hygro cells
RUN_DESCRIPTION: High-throughput genome-wide siRNA screen and validation screen for luciferase expression
Assay type: cell-based, human
CONDITION_INFO: Table 3; viable cell density as % of negative control, primary screen, 72 h
In your answer, state the number alone without any accompanying words.

As a guide, the following entries are already answered.
> print(dat)
                                  substance  quantity.kind  numeric.result
1  82 (GUCCUAUCACCGUAUCUUATT; chemistry not given here; listed as Homo sapiens) [compound 82]            VIA           55.96
2  69 (CCCUCCUACUAUUACCCGUTT; chemistry not given here; listed as Homo sapiens) [compound 69]            VIA           96.87
3  57 (GAACGAGUACAGCAAUAUATT; chemistry not given here; listed as Homo sapiens) [compound 57]            VIA           108.2
4  59 (AGAUCUUUGUCAAGGUGUATT; chemistry not given here; listed as Homo sapiens) [compound 59]            VIA           96.26

Recorded VIA of 45 (GGAUAUUGGAGGCUAGUCATT; chemistry not given here; listed as Homo sapiens) [compound 45] , please.
89.68

What value of VIA has been reported for the following substance? 75 (GCUCAUCGACAUCAAAGUUTT; chemistry not given here; listed as Homo sapiens) [compound 75]
97.01

For the substance 42 (CAAGUCACCUGUUACCUCATT; chemistry not given here; listed as Homo sapiens) [compound 42] , what VIA is on record?
88.96

Can you look up the measured VIA of 76 (CUUUUAAUGUUAAACUACATT; chemistry not given here; listed as Homo sapiens) [compound 76] for me?
111
